Tested on: MDA-MB-231
Assay: shRNA barcode abundance ratio t_end/t_zero (depletion over 4 weeks of proliferation) (log2 ratio); higher = less depletion (weaker anti-proliferative effect of the shRNA)
Conditions: time after t zero 28 days
Entry flag: MET if shRNA barcode abundance ratio t end/t zero (log2) reaches 0.08; NOT MET if it does not.

Consider the worked cases shown below.
(Q) Form field: shRNA barcode abundance ratio t end/t zero (log2) at least 0.08? Entry: CCTACTAACAATATCTGTTAA (targeted gene: SOCS2)
(A) NOT MET

(Q) And for CCTGTTGGTGTCTTTATTATT (targeted gene: CDH1) ?
(A) MET

(Q) And for GGTGCCTTGAGGAATACAGAA (targeted gene: NT5C3) ?
(A) MET

---
(Q) Form field: shRNA barcode abundance ratio t end/t zero (log2) at least 0.08? Entry: CCGTAGCCTCTGCCCTGTAAA (targeted gene: BAG3)
(A) MET

(Q) And for GCTGGCAATTACCAGAACAAT (targeted gene: WRN) ?
(A) MET

(Q) And for CGGACCTTAGTGAATATAAAT (targeted gene: OPA1) ?
(A) NOT MET

(Q) And for CCGCCTCTTTGACCAGTTCTT (targeted gene: CRYAB, Cryab) ?
(A) NOT MET

(Q) And for CCTGGCTCCTCTACTGTTTAA (targeted gene: BIRC5) ?
(A) NOT MET

(Q) And for CCTCCCTCTCAGAACCAATAA (targeted gene: DDAH2) ?
(A) NOT MET

(Q) And for GGAGTGCTCATTGTGAAGAAA (targeted gene: SORT1) ?
(A) NOT MET
